Reported values of glomerular separation for individual entries
Tested on: Danio rerio Tg(wt1b:EGFP) embryo, pronephros
test_summary: glomerular separation, fold change vs DMSO control; higher = glomeruli further apart (abnormal)
applied_conditions: 25 µM; exposure: 24-48 hpf
Counter-ions that a name gives are not always drawn.

compound: CCOc1nc2cccc(C(=O)O)c2n1Cc1ccc(-c2ccccc2-c2nnn[nH]2)cc1
subject_of_test: Danio rerio Tg(wt1b:EGFP) embryo, pronephros
glomerular separation: 0.996

compound: COc1cc2c(cc1OC)C(=O)C(CC1CCN(Cc3ccccc3)CC1)C2 (stereo not drawn) [Donepezil hydrochloride]
subject_of_test: Danio rerio Tg(wt1b:EGFP) embryo, pronephros
glomerular separation: 0.812

compound: COCCOC(=O)C1=C(C)NC(C)=C(C(=O)OC/C=C/c2ccccc2)C1c1cccc([N+](=O)[O-])c1 (stereo not drawn)
subject_of_test: Danio rerio Tg(wt1b:EGFP) embryo, pronephros
glomerular separation: 3.85

compound: C[C@]12C=CC(=O)C=C1CC[C@H]1[C@@H]3C[C@@H](O)[C@](O)(C(=O)CO)[C@@]3(C)C[C@H](O)[C@@]12F
subject_of_test: Danio rerio Tg(wt1b:EGFP) embryo, pronephros
glomerular separation: 1.19

compound: CN(C)CCOC1=Cc2ccccc2Sc2ccc(Cl)cc21 [Zotepine]
subject_of_test: Danio rerio Tg(wt1b:EGFP) embryo, pronephros
glomerular separation: 0.933

compound: C[C@H]1[C@H](NC(=O)/C(=N\OC(C)(C)C(=O)O)c2csc(N)n2)C(=O)N1S(=O)(=O)O
subject_of_test: Danio rerio Tg(wt1b:EGFP) embryo, pronephros
glomerular separation: 0.857

compound: Cc1[nH]c(=O)c(C#N)cc1-c1ccncc1
subject_of_test: Danio rerio Tg(wt1b:EGFP) embryo, pronephros
glomerular separation: 1.13

compound: CC1CCc2c(N3CCC(O)CC3)c(F)cc3c(=O)c(C(=O)O)cn1c23 (stereo not drawn)
subject_of_test: Danio rerio Tg(wt1b:EGFP) embryo, pronephros
glomerular separation: 1.13

###

System: Danio rerio Tg(wt1b:EGFP) embryo, pronephros
test_summary: fraction of imaged embryos annotated as normal kidney; higher = less nephrotoxic; extreme values may be limits of the assay
applied_conditions: 25 µM; exposure: 24-48 hpf
Structures can show the parent of a compound that is named as a salt.
Entry flag: 1.0 if fraction of imaged embryos annotated as normal kidney reaches 0.8; 0.0 if it does not.

molecule: CC(CN1c2ccccc2Sc2ccccc21)N(C)C (centres undefined) [Promethazine hydrochloride]
class: 1.0
//
molecule: Nc1ccc(S(=O)(=O)Nc2cnc3ccccc3n2)cc1 [Sulfaquinoxaline sodium salt]
class: 1.0
//
molecule: CN(C)[C@@H]1C(O)=C(C(=O)NCNCCCC[C@H](N)C(=O)O)C(=O)[C@@]2(O)C(O)=C3C(=O)c4c(O)cccc4[C@@](C)(O)[C@H]3C[C@@H]12
class: 1.0
//
molecule: CN(N=O)C(=O)N[C@@H](C=O)[C@@H](O)[C@H](O)[C@H](O)CO
class: 1.0
//
molecule: CN[C@H]1CC[C@@H](c2ccc(Cl)c(Cl)c2)c2ccccc21
class: 1.0
//
molecule: CCC(=O)[C@@]1(C)[C@H](C)C[C@H]2[C@@H]3CCC4=CC(=O)C=C[C@]4(C)[C@H]3[C@@H](O)C[C@@]21C [Rimexolone]
class: 0.0
//
molecule: CCCCC(O)c1ccccc1 (centres undefined)
class: 1.0
//
molecule: CC[N+](CC)(CC(=O)Nc1c(C)cccc1C)Cc1ccccc1 [Denatonium benzoate]
class: 1.0
//
molecule: CCN1CCN(c2cc3c(cc2F)c(=O)c(C(=O)O)cn3C2CC2)CC1
class: 1.0
//
molecule: CCN1CC(CCN2CCOCC2)C(c2ccccc2)(c2ccccc2)C1=O (centres undefined) [Doxapram hydrochloride]
class: 1.0
//
molecule: CC[C@]12CCCN3CCc4c(n(c5ccccc45)[C@@](O)(C(=O)OC)C1)[C@@H]32
class: 1.0
//
molecule: CC1CCc2cc(F)cc3c(=O)c(C(=O)O)cn1c23 (centres undefined)
class: 0.0
//
molecule: CNC(C)CCC=C(C)C (centres undefined) [Isometheptene mucate]
class: 1.0
//
molecule: CCOC(=O)c1ccc(N)cc1
class: 1.0
//
molecule: CCN(CC)CCNC(=O)c1cc(Cl)c(N)cc1OC [Metoclopramide monohydrochloride]
class: 1.0
//
molecule: O=C(O)Cc1ccc(-c2ccccc2)cc1
class: 0.0
//
molecule: CC(=O)Oc1ccccc1C(=O)Oc1ccccc1C(=O)O
class: 1.0
//
molecule: Fc1ccc(C(c2ccc(F)cc2)N2CCN(C/C=C/c3ccccc3)CC2)cc1 [Flunarizine dihydrochloride]
class: 0.0
//
molecule: CC(=O)OCC(=O)[C@@]1(O)CC[C@H]2[C@@H]3CCC4=CC(=O)CC[C@]4(C)[C@@]3(F)[C@@H](O)C[C@@]21C [Fludrocortisone acetate]
class: 0.0
//
molecule: CNCCC=C1c2ccccc2CCc2ccccc21 [Nortriptyline hydrochloride]
class: 1.0
//
molecule: CC(=O)N(O)CCCCCNC(=O)CCC(=O)N(O)CCCCCNC(=O)CCC(=O)N(O)CCCCCN [Deferoxamine mesylate]
class: 1.0
//
molecule: CC(=O)S[C@@H]1CC2=CC(=O)CC[C@]2(C)[C@H]2CC[C@@]3(C)[C@@H](CC[C@@]34CCC(=O)O4)[C@H]12
class: 1.0
//
molecule: O=C(O)[C@H]1/C(=C/CO)O[C@@H]2CC(=O)N21 [Clavulanate potassium salt]
class: 1.0
//
molecule: CN1C(=O)OC(C)(C)C1=O
class: 0.0
//
molecule: CCN(CC)CC(=O)Nc1c(C)cccc1C [Lidocaine hydrochloride]
class: 1.0
//
molecule: CN1CCCN=C1/C=C/c1cccc(O)c1 [Oxantel pamoate]
class: 1.0
//
molecule: CC(C)(O)c1ccccc1CC[C@@H](SCC1(CC(=O)O)CC1)c1cccc(/C=C/c2ccc3ccc(Cl)cc3n2)c1
class: 1.0
//
molecule: CC(=O)OCC1=C(C(=O)O)N2C(=O)[C@@H](NC(=O)Cc3cccs3)[C@H]2SC1 [Cephalothin sodium salt]
class: 1.0
//
molecule: CN1CCCC(CC2c3ccccc3Sc3ccccc32)C1 (centres undefined) [Metixene hydrochloride]
class: 1.0
//
molecule: Nc1nc(N)c2nc(-c3ccccc3)c(N)nc2n1
class: 0.0
//
molecule: CC(C(=O)O)c1ccc(C(=O)c2cccs2)cc1 (centres undefined)
class: 0.0
//
molecule: C[N+](C)(CCOc1ccccc1)Cc1ccccc1.O=C([O-])c1cc2ccccc2cc1O [Bephenium hydroxynaphthoate]
class: 0.0
//
molecule: Nc1ncnc2c1ncn2C1OC(COP(=O)(O)O)C(O)C1O (centres undefined) [Adenosine 5'-monophosphate monohydrate]
class: 1.0
//
molecule: OCc1cc(C(O)CNCCCCCCOCCCCc2ccccc2)ccc1O (centres undefined)
class: 0.0

###

Tested on: Danio rerio Tg(wt1b:EGFP) embryo, pronephros
test_summary: glomerular separation, fold change vs DMSO control; higher = glomeruli further apart (abnormal)
applied_conditions: 25 µM; exposure: 24-48 hpf
Counter-ions that a name gives are not always drawn.
Entry flag: 1.0 if glomerular separation reaches 0.9; 0.0 if it does not.

molecule: CN1CCC(=C2c3ccccc3C=Cc3ccccc32)CC1 [Cyproheptadine hydrochloride]
class: 1.0
--
molecule: CN(C)CCn1nnnc1SCC1=C(C(=O)O)N2C(=O)[C@@H](NC(=O)Cc3csc(N)n3)[C@H]2SC1 [Cefotiam hydrochloride]
class: 1.0
--
molecule: CC[C@@H](CO)NCCN[C@@H](CC)CO [Ethambutol dihydrochloride]
class: 1.0
--
molecule: C#C[C@]1(O)CC[C@H]2[C@@H]3CCC4=CCCC[C@@H]4[C@H]3CC[C@@]21C [Lynestrenol]
class: 0.0
--
molecule: CN[C@@H]1[C@H](O[C@H]2[C@H](O[C@H]3[C@H](O)[C@@H](O)[C@H](N=C(N)N)[C@@H](O)[C@@H]3N=C(N)N)O[C@@H](C)[C@]2(O)C=O)O[C@@H](CO)[C@H](O)[C@H]1O [Streptomycin sulfate]
class: 0.0

###

System: Danio rerio Tg(wt1b:EGFP) embryo, pronephros
test_summary: pronephric angle neck segment to proximal convoluted tubule (mean of left and right), fold change vs DMSO control; higher = larger pronephric angle
applied_conditions: 25 µM; exposure: 24-48 hpf
Structures can show the parent of a compound that is named as a salt.

compound: CNCCCC12CCC(c3ccccc31)c1ccccc12 [Maprotiline hydrochloride]
pronephric angle neck segment: 1.1
--
compound: CN1C(C(=O)Nc2ccccn2)=C(O)c2sccc2S1(=O)=O
pronephric angle neck segment: 0.999
--
compound: c1ccc(CNc2ncnc3nc[nH]c23)cc1
pronephric angle neck segment: 1.02
--
compound: CC[C@H]1OC(=O)C[C@@H](O)[C@H](C)[C@@H](O[C@@H]2O[C@H](C)[C@@H](O[C@H]3C[C@@](C)(O)[C@@H](O)[C@H](C)O3)[C@H](N(C)C)[C@H]2O)[C@@H](CC=O)C[C@@H](C)C(=O)/C=C/C(C)=C/[C@@H]1CO[C@@H]1O[C@H](C)[C@@H](O)[C@@H](OC)[C@H]1OC
pronephric angle neck segment: 1
--
compound: O=C(O)c1cc(-c2ccc(F)cc2F)ccc1O
pronephric angle neck segment: 1.69
--
compound: CC(=C(CCO)SSCC1CCCO1)N(C=O)Cc1cnc(C)nc1N (stereo in doubt) [Fursultiamine Hydrochloride]
pronephric angle neck segment: 1.01
--
compound: CCN(CCCCOC(=O)c1ccc(OC)c(OC)c1)C(C)Cc1ccc(OC)cc1 (stereo not drawn) [Mebeverine hydrochloride]
pronephric angle neck segment: 0.965
--
compound: CC(C(=O)O)c1ccc(C(=O)c2ccccc2)s1 (stereo not drawn)
pronephric angle neck segment: 1.03

Taken from the supplement of paper PMC7366291.
